SYSTEM_TESTED: HLA-A*02 (human)
ASSAY_NAME: UV-ligand exchange, anti-b2m ELISA; grade: exchange yield >=50%
ATTRIBUTE_MEASURED: peptide exchange yield

As a guide, the following entries are already answered.
binder=VLFQEALWHV attribute_measured="peptide exchange yield" result="50 to 75%"
binder=SLLSGRISTL attribute_measured="peptide exchange yield" result="50 to 75%"
binder=LLLPLLPPLSP attribute_measured="peptide exchange yield" result="50 to 75%"
binder=KLDAFVEGV attribute_measured="peptide exchange yield" result="50 to 75%"

Fill in the blank: the reported peptide exchange yield of "SLMGPVVHEV" is ____.
50 to 75%
